# reported ED50; entries follow
- System: Pentylenetetrazole-Induced Convulsion
- Assay Text: Potentiation of Pentylenetetrazole-Induced Convulsion (inverse agonist activity)
- Format: in vivo
- Details: Mus musculus, iv; male mice; test compound i.v.; pentylenetetrazole 90 mg/kg s.c.; 2-hour observation; probit method; read-out: ED50 (dose required to produce tonic convulsion and death in 50% of the animals)
Numbers only; they are read as mg/kg.

Consider the reported ED50 for these compounds:
Structure String	Quantity	Result Units	Recorded Result
c1cc(-c2nc3cnc4c(c3[nH]2)COCC4)no1	ED50	mg/kg	1.27
c1cc(-c2nc3cnc4c(c3[nH]2)CSCC4)no1	ED50	mg/kg	0.96
CC1(C)Cc2ncc3nc(-c4ccon4)[nH]c3c2C1	ED50	mg/kg	0.25

// next item, ED50 requested
Ask: Give the value of ED50 reported for the following: c1cc(-c2nc3cnc4c(c3[nH]2)CCC4)no1
Result: 0.4

----------
pKi: recorded values
- Tgt: Benzodiazepine Receptor
- Assay Text: Test on Binding to Benzodiazepine Receptor (inhibition of specific binding of tritium-labeled diazepam)
- Details: rat cerebral cortex; 2 nM tritium-labeled diazepam; 0° C., 60 minutes; Ki=IC50÷(1+L/Kd)
Recall that pKi is obtained by taking minus log10 of the concentration measured in molar.

Consider the worked cases shown below.
Structure String	Quantity	Recorded Result
c1cc(-c2nc3cnc4c(c3[nH]2)CSCC4)no1	pKi	9.36
c1csc(-c2nc3cnc4c(c3[nH]2)CCCC4)c1	pKi	8.72
Cc1cc(-c2nc3cnc4c(c3[nH]2)CCCCC4)on1	pKi	8.02
c1ccc(-c2nc3cnc4c(c3[nH]2)CCCC4)cc1	pKi	7.86
CC1(C)Cc2ncc3nc(-c4ccon4)[nH]c3c2C1	pKi	8.14
CCOC(=O)N1CCc2ncc3nc(-c4ccon4)[nH]c3c2C1	pKi	8.55
c1cc(-c2nc3cnc4c(c3[nH]2)CCCC4)no1	pKi	8.89
c1coc(-c2nc3cnc4c(c3[nH]2)CCCC4)c1	pKi	8.46

Ask: Indicate the recorded pKi value for this compound: c1csc(-c2nc3cnc4c(c3[nH]2)CCCCC4)c1
Result: 8.22

Ask: Identify the reported pKi for the following entry. c1cc(-c2nc3cnc4c(c3[nH]2)CCCCC4)no1
Result: 8.64

Ask: Using known records, supply pKi for Cc1cc(-c2nc3cnc4c(c3[nH]2)CCCC4)on1
Result: 8.66

Ask: Find the measured pKi of Cc1cc(-c2nc3cnc4c(c3[nH]2)CCC4)on1 and report it.
Result: 8.05

Ask: Please look at this compound and report its pKi: c1cc(-c2nc3cnc4c(c3[nH]2)CCC4)no1
Result: 8.59

Ask: Give a short answer stating reported pKi for Cc1cc(-c2nc3cnc4c(c3[nH]2)COCC4)on1 .
Result: 8.16

Ask: // fetch pKi given entry c1cc(-c2nc3cnc4c(c3[nH]2)COCC4)no1
Result: 8.68
